Values compiled from ChEMBL document CHEMBL1201862.

tested on: A549; experiment: NCI tumour cell line growth inhibition, 48 h
Activity calls are given as the source filed them. Rule as the data show it: active = GI50 up to about 1.1 µM and inactive = higher.
Each entry below carries its reported GI50.

| molecule | GI50 |
| --- | --- |
| CCOC(=O)C1=C(C)N(Cc2ccc(Cl)cc2Cl)C2(O)C=CC(=O)C3C(=O)N(c4ccccc4)C(=O)C132 (stereo not given) | 2.11 µM (inactive) |
| CC1CC(C)CN(S(=O)(=O)c2cc(Cl)c(Oc3ccc([N+](=O)[O-])cc3Cl)c(Cl)c2)C1 (stereo not given) | > 100 µM (inactive) |
| C1=Cc2nccc3cc4c(c(c23)N1)OCO4 | 5.3 µM (inactive) |
| O=C1CCC2(c3ccc(F)cc3)Nc3ncccc3N12 (stereo not given) | > 100 µM (inactive) |
| CCCCCCCC(=O)NS(=O)(=O)c1ccccc1 | > 100 µM (inactive) |
| N#Cc1nc(-c2cnccn2)oc1N | > 100 µM (inactive) |
| CCn1c(=O)c2nc(SC)sc2n(-c2ccccc2)c1=S | 98.9 µM (inactive) |
| COC(=O)[C@@H]1CC(C(CN)c2cn(C(=O)OC(C)(C)C)c3ccccc23)C(=O)N1C(=O)OC(C)(C)C (stereo not given in full) | 35.3 µM (inactive) |
| Oc1cccc2ccc(Br)nc12 | > 100 µM (inactive) |
| COc1cc2ccnc3c2c(c1OC)N(C)C=C3 | 17.7 µM (inactive) |
